Numbers sourced from PubChem BioAssay AID179.

# System: CEM cells HIV-1 protection, formazan growth assay
# ASSAY PROTOCOL: NCI AIDS Antiviral Assay;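 active = compounds giving half or more protection of infected cells from virus-caused growth loss, again on retest; inactive = the rest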
# Method: The ability of compounds to protect human CEM cells from HIV-1 infection is measured as a screen for new compounds capable of inhibiting the HIV virus. Five concentrations of drug were tested on uninfected and infected cells and cell growth was measured using a soluble formazan assay. […] Compounds that provided at least 50% protection were retested. Compounds that provided at least 50% protection on retest were listed as moderately active. […]
Outcome codes: y for active, n for inactive

INSERT INTO results (compound, assigned_label) VALUES
  ('COc1cc2c(cc1OC)[C@H](C(=O)O)[C@@H](c1ccc(OC(C)C)c(OC)c1)N(C)C2=O', 'n'),
  ('Cc1cn(COCCCO)c(=O)[nH]c1=O', 'n'),
  ('CSc1nc(C(N)=O)c(NC(=O)c2ccccc2)s1', 'n'),
  ('O=[N+]([O-])c1cccc(C2SCc3nc4ccccc4n32)c1 (stereo not given)', 'n'),
  ('COc1cc2c(cc1OC)C(CC(=O)NN=C(C)C)NCC2 (stereo not given)', 'n'),
  ('CCC1(CCCC=C(c2cc(Cl)c(OC)c(CO)c2)c2cc(Cl)c(OC)c(CO)c2)OCCO1', 'n'),
  ('CCOC(=O)NP(=O)(Nc1ccccc1)Nc1ccccc1', 'n'),
  ('O=C(Nc1ccc2c(O)cc(S(=O)(=O)O)cc2c1)Nc1ccc2c(O)cc(S(=O)(=O)O)cc2c1', 'y'),
  ('CC(=O)NNc1nc(C)c(C(/C=C/c2ccc(/C=C/C(=N\NC(=O)c3ccncc3)c3sc(NNC(C)=O)nc3C)cc2)=N/NC(=O)c2ccncc2)s1', 'n'),
  ('CCCCCOC(=O)C(=O)Nc1n[nH]nc1C(N)=O', 'n');
